Measured values drawn from paper PMC5454942 for this set.

List of CC50 cell viability values.
System: B16 melanoma cells
PROCEDURE_SUMMARY: Cell viability of B16 melanoma cells (MTT)
CONDITION_CONTEXT: B16 melanoma cells, MTT
Numbers only here, please. The scale is µg/mL.

Query block: Please state recorded CC50 cell viability (tested on B16 melanoma cells) of COC(=O)[C@]12CC[C@@H](C)[C@H](C)[C@H]1C1=CC[C@@H]3[C@@]4(C)C[C@@H](O)[C@H](O)C(C)(C)[C@@H]4CC[C@@]3(C)[C@]1(C)CC2 [Compound 6, methyl corosolate]
Result block: 9.1

Query block: Form: Entry = C[C@@H]1CC[C@]2(C(=O)O)CC[C@]3(C)C(=CC[C@@H]4[C@@]5(C)C[C@@H](O)[C@H](OC(=O)/C=C/c6ccc(O)cc6)C(C)(C)[C@@H]5CC[C@]43C)[C@@H]2[C@]1(C)O (relative stereo) [Compound 17, 3-O-trans-p-coumaroyl tormentic acid] | System = B16 melanoma cells | CC50 cell viability = ____
Result block: 15.6

Query block: State its CC50 cell viability on B16 melanoma cells: C[C@@H]1CC[C@]2(C(=O)O)CC[C@]3(C)C(=CC[C@@H]4[C@@]5(C)C[C@@H](O)[C@H](O)C(C)(C)[C@@H]5CC[C@]43C)[C@@H]2[C@]1(C)O [Compound 11, tormentic acid]
Result block: 11.4

Query block: # value lookup — system B16 melanoma cells, readout CC50 cell viability, item C[C@@H]1CC[C@]2(C(=O)O)CC[C@]3(C)C(=CC[C@@H]4[C@@]5(C)CCC(=O)C(C)(C)[C@@H]5[C@H](O)C[C@]43C)[C@@H]2[C@]1(C)O [Compound 14]
Result block: 5.3

---

Tested on: B16 melanoma cells
PROCEDURE_SUMMARY: Cell viability of B16 melanoma cells (MTT)
CONDITION_CONTEXT: 1 μg/ml, B16 cells
Inhibition rate (100% − cell viability) strictly less than 5% = Satisfied. Otherwise Not satisfied.

Example results:
{"COMPOUND": "COC(=O)[C@]12CCC(C)(C)C[C@@H]1C1=CC[C@@H]3[C@@]4(C)C[C@@H](O)[C@H](O)C(C)(C)C4CC[C@@]3(C)[C@]1(C)CC2 (some centres unmarked) [Compound 5, Methyl maslinate]", "SUBJECT_OF_TEST": "B16 melanoma cells", "ASSIGNED_CATEGORY": "Satisfied"}
{"COMPOUND": "C[C@@H]1CC[C@]2(C(=O)O)CC[C@]3(C)C(=CC[C@@H]4[C@@]5(C)CC[C@H](O)C(C)(C)[C@@H]5CC[C@]43C)[C@@H]2[C@]1(C)O", "SUBJECT_OF_TEST": "B16 melanoma cells", "ASSIGNED_CATEGORY": "Satisfied"}
{"COMPOUND": "C[C@@H]1CC[C@]2(C(=O)O)CC[C@]3(C)C(=CC[C@@H]4[C@@]5(C)C[C@@H](O)[C@H](O)C(C)(C)[C@@H]5CC[C@]43C)[C@@H]2[C@]1(C)O", "SUBJECT_OF_TEST": "B16 melanoma cells", "ASSIGNED_CATEGORY": "Not satisfied"}

Query block: Please determine if C=C(C)[C@@H]1CC[C@]2(C(=O)O)CC[C@]3(C)[C@H](CC[C@@H]4[C@@]5(C)CC[C@H](O)C(C)(C)[C@@H]5CC[C@]43C)[C@@H]12 is below 5% in terms of Inhibition rate (100% − cell viability).
Result block: Satisfied

Query block: API: query returns whether the compound falls strictly under 5% in Inhibition rate (100% − cell viability). Query: CC1(C)CC[C@]2(C(=O)O)CC[C@]3(C)C(=CC[C@@H]4[C@@]5(C)C[C@@H](O)[C@H](O)C(C)(C)[C@@H]5CC[C@]43C)[C@@H]2C1
Result block: Satisfied

Query block: For C[C@H]1[C@H](C)CC[C@]2(C(=O)O)CC[C@]3(C)C(=CC[C@@H]4[C@@]5(C)C[C@@H](O)[C@H](O)C(C)(C)[C@@H]5CC[C@]43C)[C@H]12 , is the recorded Inhibition rate (100% − cell viability) below the cut-off of 5%?
Result block: Satisfied

Query block: Quick check: Inhibition rate (100% − cell viability) of C[C@@H]1CC[C@]2(C(=O)O)CC[C@]3(C)C(=CC[C@@H]4[C@@]5(C)C[C@@H](O)[C@H](OC(=O)/C=C\c6ccc(O)cc6)C(C)(C)[C@@H]5CC[C@]43C)[C@@H]2[C@]1(C)O (relative stereo) [Compound 18, 3-O-cis-p-coumaroyl tormentic acid] under 5%?
Result block: Not satisfied

Query block: Regarding CC1CCC2(C(=O)O)CCC3(C)C(=CCC4C5(C)C(CO)=CC(C)(C)C5CCC43C)C2C1(C)O (centres unmarked) , kindly confirm whether its Inhibition rate (100% − cell viability) is beneath 5%.
Result block: Satisfied
